Origin of values: paper PMC5875850

Target: A3GCTD WT (A3G191-384-2K3A) (Homo sapiens, UniProt Q9HC16 191-384, L234K;C243A;F310K;C321A;C356A)
Sequence (Q9HC16 191-384 L234K/C243A/F310K/C321A/C356A, one chain of several): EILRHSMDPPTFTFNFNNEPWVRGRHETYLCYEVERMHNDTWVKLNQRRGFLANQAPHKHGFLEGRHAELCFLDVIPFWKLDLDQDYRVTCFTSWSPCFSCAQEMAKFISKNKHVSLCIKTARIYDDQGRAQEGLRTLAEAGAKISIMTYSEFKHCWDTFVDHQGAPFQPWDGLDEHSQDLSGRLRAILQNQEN
Assay: single-turnover deamination kinetics (kobs vs [E], hyperbolic fit); Kinetic Kd: 20 mM Tris pH 8.0, 1 mM DTT, 37 C, 1-50 uM enzyme, 40 nM DNA; SEC/complex: 50 mM Tris pH 7.0, 100 mM NaCl, 0.1 mM TCEP (stated for the Pot1-A3GCTD gel filtration); crystals 20 C, 100 mM HEPES pH 7, 200 mM LiCl, 20% PEG 6000
Conditions: protein: recombinant; tags: His6-MBP tag removed by SARS-CoV Mpro; label: 5' 32P; single strand
Measurement type: Kd (µM)
Give just the numeric value; µM need not be written.

Q. Look at this binder and give its reported Kd. TAGAAAGGGAGACCCAAAGAGGAAAGGTGA (ssDNA) [CCCA 30-mer]
A. 26
